- TARGET OF ASSAY: KRAS G12C (Homo sapiens, UniProt P01116, G12C)
- Construct: 4 nM KRAS; aa1-188 containing the G12V, G12C, G12A or G12S amino acid substitution
- Sequence (P01116 1-188 isoform P01116-2 G12C): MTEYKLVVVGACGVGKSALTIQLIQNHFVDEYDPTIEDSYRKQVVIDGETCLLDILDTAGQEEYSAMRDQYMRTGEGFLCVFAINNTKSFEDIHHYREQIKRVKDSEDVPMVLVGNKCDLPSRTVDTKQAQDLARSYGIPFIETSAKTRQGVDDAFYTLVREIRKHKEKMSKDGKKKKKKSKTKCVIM
- TEST DETAILS: HTRF nucleotide exchange assay (NEA), KRAS G12C
- Type: biochemical
pIC50: −log10 of the molar value.
Entries and their measured pIC50 follow.

Here's what some known entries look like.
COMPOUND: O=C1CCN(c2nc(OCC34CCCN3CCC4)nc3c(F)c(-c4cc(O)cc5ccccc45)ncc23)CCN1
VALUE OBSERVED: 5.00 to 7.00

COMPOUND: Oc1cc(-c2ncc3c(N4CC5CCC(C5)C4)nc(OCC45CCCN4CCC5)nc3c2F)c2ccccc2c1
VALUE OBSERVED: 7.00 to 8.00

Next up:
Query block: What measured pIC50 goes with [O-][S+]1CCCN(c2nc(OCC34CCCN3CCC4)nc3c(F)c(-c4cc(O)cc5ccccc45)ncc23)CC1 (stereo not drawn) ?
Result block: 7.00 to 8.00

---

- TARGET OF ASSAY: KRAS WT (Homo sapiens, UniProt P01116)
- Construct: Recombinant human RAS protein (2 nM); aa1-188 KRAS WT
- Sequence (P01116 1-188 isoform P01116-2): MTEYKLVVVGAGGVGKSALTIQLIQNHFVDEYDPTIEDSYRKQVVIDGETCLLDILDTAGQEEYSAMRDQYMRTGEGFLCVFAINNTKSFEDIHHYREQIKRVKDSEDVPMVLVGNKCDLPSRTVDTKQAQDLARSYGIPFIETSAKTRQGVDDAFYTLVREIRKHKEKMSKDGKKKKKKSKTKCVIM
- TEST DETAILS: HTRF nucleotide exchange assay (NEA), KRAS WT
- Format: biochemical
The molecules listed here are annotated with their IC50.

// known answers, use as guide
MOLECULE: COCC1CCN(c2nc(OCC34CCCN3CCC4)nc3c(F)c(-c4cc(O)cc5ccccc45)ncc23)C1 (stereo not shown)
TARGET OF ASSAY: KRAS WT (Homo sapiens, UniProt P01116)
VALUE OBSERVED: 100 to 10000 nM

MOLECULE: Oc1cc(-c2ncc3c(NC4CCCCC4)nc(OCC45CCCN4CCC5)nc3c2F)c2ccccc2c1
TARGET OF ASSAY: KRAS WT (Homo sapiens, UniProt P01116)
VALUE OBSERVED: 100 to 10000 nM

MOLECULE: O=C1NCc2ccc(Nc3nc(OCC45CCCN4CCC5)nc4c(F)c(-c5cc(O)cc6ccccc56)ncc34)cc21
TARGET OF ASSAY: KRAS WT (Homo sapiens, UniProt P01116)
VALUE OBSERVED: 100 to 10000 nM

MOLECULE: CC(=O)OCCCNc1nc(OCC23CCCN2CCC3)nc2c(F)c(-c3cc(O)cc4ccccc34)ncc12
TARGET OF ASSAY: KRAS WT (Homo sapiens, UniProt P01116)
VALUE OBSERVED: 100 to 10000 nM

MOLECULE: O=S1(=O)CCCN(c2nc(OCC34CCCN3CCC4)nc3c(F)c(-c4cc(O)cc5ccccc45)ncc23)CC1
TARGET OF ASSAY: KRAS WT (Homo sapiens, UniProt P01116)
VALUE OBSERVED: 100 to 10000 nM

Shift focus to the following entry.
Query block: Give its IC50 value. Item: Oc1cc(-c2ncc3c(N4CCC5(CCOC5)CC4)nc(OCC45CCCN4CCC5)nc3c2F)c2ccccc2c1
Result block: 100 to 10000 nM

---

The compounds listed here are annotated with their pIC50.
- TARGET OF ASSAY: KRAS G12C (Homo sapiens, UniProt P01116, G12C)
- Construct: 4 nM KRAS; aa1-188 containing the G12V, G12C, G12A or G12S amino acid substitution
- TEST DETAILS: HTRF nucleotide exchange assay (NEA), KRAS G12C
- Assay type: biochemical
pIC50: −log10 of the molar value.

# example entries with known answers
COMPOUND: O=C1CC2(CCN(c3nc(OCC45CCCN4CCC5)nc4c(F)c(-c5cc(O)cc6ccccc56)ncc34)CC2)CN1
pIC50: 5.00 to 7.00
--
COMPOUND: Oc1cc(-c2ncc3c(N4CCOC5(CCCC5)C4)nc(OCC45CCCN4CCC5)nc3c2F)c2ccccc2c1
pIC50: 5.00 to 7.00
--
COMPOUND: CN1CCN(c2nc(OCC34CCCN3CCC4)nc3c(F)c(-c4cc(O)cc5ccccc45)ncc23)CCC1=O
pIC50: 5.00 to 7.00
--
COMPOUND: CC1COCCCN1c1nc(OCC23CCCN2CCC3)nc2c(F)c(-c3cc(O)cc4ccccc34)ncc12 (stereo not drawn)
pIC50: 7.00 to 8.00
--
COMPOUND: O=S1(=O)CCN(c2nc(OCC34CCCN3CCC4)nc3c(F)c(-c4cc(O)cc5ccccc45)ncc23)CCN1
pIC50: 5.00 to 7.00

Here is the next item to consider.
Query block: Returns the measured pIC50 for the input compound. Input: CSCCCNc1nc(OCC23CCCN2CCC3)nc2c(F)c(-c3cc(O)cc4ccccc34)ncc12
Result block: 5.00 to 7.00
